Would you mind telling me the reported inhibition at 110 µM of each entry?
# Test system: C. elegans
# test_method_notes: microbe, parasite or virus in culture
# condition_description: Caenorhabditis elegans, 24 h, read-out: Percentage of motility inhibition 24 h, Table S2, C. elegans SS assay, 110 μM, 24 h, averages of 4 data points
Lab book: enter the figure in %, no units written.

Please report the recorded inhibition at 110 µM for C[C@H](CC(=O)C[C@@H](C)[C@H]1C[C@H](O)[C@@]2(C)C3=C(C(=O)C[C@]12C)[C@@]1(C)CCC(=O)C(C)(C)[C@@H]1C[C@@H]3O)C(=O)O [Ganoderic acid A] .
6

Please report the recorded inhibition at 110 µM for O=c1cc(-c2ccccc2)oc2cccc(O)c12 [5‐Hydroxyflavone] .
21

Please report the recorded inhibition at 110 µM for Cc1cc(CCCOc2c(C)cc(-c3noc(C(F)(F)F)n3)cc2C)on1 [Pleconaril] .
14

Please report the recorded inhibition at 110 µM for Cc1cc(-n2c(=O)[nH]c(=O)n(C)c2=O)ccc1Oc1ccc(SC(F)(F)F)cc1 [Toltrazuril] .
2
